# TARGET_ENTITY: Metabotropic glutamate receptor 2 (Rattus norvegicus)
# Sequence (P31421 whole entry): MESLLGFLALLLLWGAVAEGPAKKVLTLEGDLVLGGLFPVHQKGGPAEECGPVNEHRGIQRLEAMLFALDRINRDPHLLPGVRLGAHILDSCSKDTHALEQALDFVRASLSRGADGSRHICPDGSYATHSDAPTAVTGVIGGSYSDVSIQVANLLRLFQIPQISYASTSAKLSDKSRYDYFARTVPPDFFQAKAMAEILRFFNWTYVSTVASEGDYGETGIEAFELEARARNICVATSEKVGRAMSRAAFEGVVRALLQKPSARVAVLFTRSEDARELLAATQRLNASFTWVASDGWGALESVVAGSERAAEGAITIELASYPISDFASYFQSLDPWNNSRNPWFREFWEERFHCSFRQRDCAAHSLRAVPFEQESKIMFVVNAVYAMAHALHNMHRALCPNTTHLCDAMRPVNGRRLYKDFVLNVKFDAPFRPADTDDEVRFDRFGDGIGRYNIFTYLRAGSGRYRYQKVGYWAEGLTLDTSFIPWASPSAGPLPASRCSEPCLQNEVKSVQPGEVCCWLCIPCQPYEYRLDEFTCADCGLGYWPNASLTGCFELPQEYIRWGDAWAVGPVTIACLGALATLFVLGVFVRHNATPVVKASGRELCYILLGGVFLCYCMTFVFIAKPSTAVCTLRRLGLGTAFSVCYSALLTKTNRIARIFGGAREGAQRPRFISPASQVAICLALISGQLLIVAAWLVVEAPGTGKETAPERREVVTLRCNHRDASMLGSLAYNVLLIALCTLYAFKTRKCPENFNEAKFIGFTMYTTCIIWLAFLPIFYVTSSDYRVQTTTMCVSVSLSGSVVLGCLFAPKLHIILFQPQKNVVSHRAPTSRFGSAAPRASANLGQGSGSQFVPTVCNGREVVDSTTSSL
# METHOD: Inhibitory activity against Metabotropic glutamate receptor 2 in the rat HEK 293 cells.
pIC50: −log10 of the molar value.
QUANTITY_KIND: pIC50

compound=N[C@H](C(=O)O)C12CC(C(=O)O)(C1)C2 result_modifier=< result_value=3.52
compound="NC1(C(=O)O)C2CCC1C(C(=O)O)C2 (stereo not given)" result_modifier=< result_value=3.00
compound=N[C@@H](CC(C(=O)O)C(=O)O)C(=O)O result_modifier== result_value=3.99
compound=N[C@]1(C(=O)O)C[C@H](C(=O)O)[C@H](C(=O)O)C1 result_modifier== result_value=4.06
compound=C[C@@](N)(C(=O)O)[C@H]1C[C@@H]1C(=O)O result_modifier== result_value=4.11

###

# TARGET_ENTITY: Metabotropic glutamate receptor 1 (Rattus norvegicus) (UniProt P23385)
# Sequence (P23385 19-1199 limits assumed): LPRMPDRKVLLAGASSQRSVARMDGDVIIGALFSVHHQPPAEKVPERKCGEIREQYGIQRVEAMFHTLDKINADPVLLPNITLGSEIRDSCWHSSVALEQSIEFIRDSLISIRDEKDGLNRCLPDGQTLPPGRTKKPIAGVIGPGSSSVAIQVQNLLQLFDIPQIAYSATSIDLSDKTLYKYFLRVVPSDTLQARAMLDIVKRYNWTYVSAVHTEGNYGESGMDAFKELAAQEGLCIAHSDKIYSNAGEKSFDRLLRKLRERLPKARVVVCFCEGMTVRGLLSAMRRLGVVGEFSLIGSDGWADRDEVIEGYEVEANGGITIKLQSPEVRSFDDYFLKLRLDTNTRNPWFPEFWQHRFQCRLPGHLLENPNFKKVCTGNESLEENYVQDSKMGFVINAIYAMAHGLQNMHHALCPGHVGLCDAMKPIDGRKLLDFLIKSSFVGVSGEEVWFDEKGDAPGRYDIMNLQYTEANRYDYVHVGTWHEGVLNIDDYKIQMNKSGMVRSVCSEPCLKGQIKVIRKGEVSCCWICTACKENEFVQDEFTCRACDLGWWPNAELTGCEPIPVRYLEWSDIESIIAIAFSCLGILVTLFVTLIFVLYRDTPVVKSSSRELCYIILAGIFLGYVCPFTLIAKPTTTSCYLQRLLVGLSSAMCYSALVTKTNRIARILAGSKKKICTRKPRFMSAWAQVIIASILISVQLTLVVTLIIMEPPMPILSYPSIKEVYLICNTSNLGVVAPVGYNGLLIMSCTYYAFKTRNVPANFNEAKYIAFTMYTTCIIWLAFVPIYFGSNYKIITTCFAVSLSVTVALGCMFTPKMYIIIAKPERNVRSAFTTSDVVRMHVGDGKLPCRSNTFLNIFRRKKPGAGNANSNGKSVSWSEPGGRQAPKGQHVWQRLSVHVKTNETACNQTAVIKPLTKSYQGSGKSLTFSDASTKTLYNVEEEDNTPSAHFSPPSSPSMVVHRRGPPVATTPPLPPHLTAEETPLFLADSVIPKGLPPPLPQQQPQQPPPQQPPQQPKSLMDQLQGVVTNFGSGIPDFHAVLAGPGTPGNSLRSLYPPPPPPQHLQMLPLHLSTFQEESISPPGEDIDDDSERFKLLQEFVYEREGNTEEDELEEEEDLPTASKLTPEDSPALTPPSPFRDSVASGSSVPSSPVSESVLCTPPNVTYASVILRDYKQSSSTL
# METHOD: Ratio between EC50 of compound and glutamate measured against metabotropic glutamate receptor 1
# Format: functional
QUANTITY_KIND: EC50 ratio

molecule=N[C@@H](CCC(=O)O)C(=O)O result_value=1
molecule=C=C(C[C@@H](N)C(=O)O)C(=O)O result_value=14
molecule="NC1(C(=O)O)CC2CC1C2C(=O)O (stereo in doubt; 12)" result_value=0.32
molecule=N[C@H](C(=O)O)[C@@H]1C[C@H]1C(=O)O result_value=20
molecule="NC1(C(=O)O)C2CCC1C(C(=O)O)C2 (stereo not given)" result_value="> 80"
molecule=C[C@H](C[C@H](N)C(=O)O)C(=O)O result_value=4.6
molecule=C=C(C[C@H](N)C(=O)O)C(=O)O result_value=0.7
molecule=N[C@@H](Cn1oc(=O)[nH]c1=O)C(=O)O result_value=0.02
molecule=N[C@@]1(C(=O)O)CC[C@H](C(=O)O)C1 result_value="> 25"
molecule=N[C@H](C(=O)O)c1cc(O)cc(O)c1 result_value=0.53
molecule=C[C@@](N)(CCC(=O)O)C(=O)O result_value="> 80"
molecule=N[C@@]1(C(=O)O)CN[C@@H](C(=O)O)C1 result_value="> 80"
molecule=C[C@H](CC(=O)O)[C@H](N)C(=O)O result_value=23
molecule=N[C@@]1(C(=O)O)CC[C@@H](C(=O)O)C1 result_value=0.75
molecule="CC(CC(N)C(=O)O)C(=O)O (racemic)" result_value=0.65

###

# TARGET_ENTITY: Metabotropic glutamate receptor 1 (Rattus norvegicus) (UniProt P23385)
# METHOD: Ratio between EC50 of compound and glutamate measured against metabotropic glutamate receptor 1
# Format: functional
QUANTITY_KIND: EC50 ratio

compound=C[C@@H](C[C@H](N)C(=O)O)C(=O)O target_entity="Metabotropic glutamate receptor 1 (Rattus norvegicus) (UniProt P23385)" quantity_kind="EC50 ratio" result_modifier== result_value=0.5
compound="NC1(C(=O)O)CC2CC1C2C(=O)O (stereo in doubt; 13)" target_entity="Metabotropic glutamate receptor 1 (Rattus norvegicus) (UniProt P23385)" quantity_kind="EC50 ratio" result_modifier== result_value=25
compound=N[C@H](C(=O)O)[C@H]1C[C@@H]1C(=O)O target_entity="Metabotropic glutamate receptor 1 (Rattus norvegicus) (UniProt P23385)" quantity_kind="EC50 ratio" result_modifier== result_value=5
compound=O=C(O)[C@H]1C[C@H](C(=O)O)N1 target_entity="Metabotropic glutamate receptor 1 (Rattus norvegicus) (UniProt P23385)" quantity_kind="EC50 ratio" result_modifier== result_value=15
compound=C[C@H](C[C@@H](N)C(=O)O)C(=O)O target_entity="Metabotropic glutamate receptor 1 (Rattus norvegicus) (UniProt P23385)" quantity_kind="EC50 ratio" result_modifier== result_value=4.9
compound="NC1(C(=O)O)CC2CC1C2C(=O)O (stereo in doubt; 14)" target_entity="Metabotropic glutamate receptor 1 (Rattus norvegicus) (UniProt P23385)" quantity_kind="EC50 ratio" result_modifier== result_value=47
compound=N[C@H](C(=O)O)c1cccc(O)c1 target_entity="Metabotropic glutamate receptor 1 (Rattus norvegicus) (UniProt P23385)" quantity_kind="EC50 ratio" result_modifier== result_value=7.8
compound=N[C@]1(C(=O)O)CC[C@H](C(=O)O)C1 target_entity="Metabotropic glutamate receptor 1 (Rattus norvegicus) (UniProt P23385)" quantity_kind="EC50 ratio" result_modifier== result_value=10
compound="NC1(C(=O)O)CC2CCC1C2C(=O)O (stereo in doubt; 10)" target_entity="Metabotropic glutamate receptor 1 (Rattus norvegicus) (UniProt P23385)" quantity_kind="EC50 ratio" result_modifier=> result_value=80
compound=C[C@](N)(CCC(=O)O)C(=O)O target_entity="Metabotropic glutamate receptor 1 (Rattus norvegicus) (UniProt P23385)" quantity_kind="EC50 ratio" result_modifier=> result_value=80
compound=C[C@@H](CC(=O)O)[C@H](N)C(=O)O target_entity="Metabotropic glutamate receptor 1 (Rattus norvegicus) (UniProt P23385)" quantity_kind="EC50 ratio" result_modifier== result_value=13
compound=N[C@H](C(=O)O)c1cc(O)no1 target_entity="Metabotropic glutamate receptor 1 (Rattus norvegicus) (UniProt P23385)" quantity_kind="EC50 ratio" result_modifier== result_value=0.91
compound="C=C(CC(N)C(=O)O)C(=O)O (racemic)" target_entity="Metabotropic glutamate receptor 1 (Rattus norvegicus) (UniProt P23385)" quantity_kind="EC50 ratio" result_modifier== result_value=1.1

Ref: ChEMBL document CHEMBL1132716
